target: Human immunodeficiency virus type 1 reverse transcriptase (Human immunodeficiency virus 1, UniProt Q72547)
property: IC50 (nM)

1. Cc1cn([C@H]2C=C[C@]3(COP(=O)(O)OP(=O)(O)OP(=O)(O)O)C[C@H]23)c(=O)[nH]c1=O
2. Cc1cn([C@H]2C=C[C@@H](COP(=O)(O)OP(=O)(O)OP(=O)(O)O)O2)c(=O)[nH]c1=O
# input When their IC50 values are compared, which is larger, 1 or 2 ? Return value: the label identifying the chosen record.
# output 1
(1: 650 nM, 2: 80 nM)

* * *

test system: CCRF-CEM; test: Effective concentration required to protect activity Human CEM/TK- cells against cytopathogenicity of HIV virus; assay type: functional, cell-based
property: pEC50
Convention used: pEC50 is expressed as -log10 of the molar concentration.

# input Can you look up the measured pEC50 of `Cc1cn([C@H]2C=C[C@@H](CO)O2)c(=O)[nH]c1=O` for me?
# output 4.57
